# Study Target: ARF4
# Test Details: pooled miR-30 sensor sort-seq; sequence = guide strand; note: reference of the scale not given here
# Study Conditions: shRNA
Recorded Metric: sensor-assay potency score (higher = more potent)
Give bare numbers.

Take a look at these entries with their results.
Prompt: Quick one: sensor-assay potency score (higher = more potent) for TACCACAAAAATAAGACCCTGG ?
Response: 0.855

Prompt: How about TTGAACATACCATGTTCTGTTA ?
Response: -0.718

Prompt: How about TTGTCTTGCCAGCAGCATCCAA ?
Response: -0.778

For each of the sequences below, note its sensor-assay potency score (higher = more potent).
1. AATTTTGTTGTAACAAGCCTAG
2. TTTGTTTGCAAAAAGTAGCAGC
3. TTATACAGAATGGTTGTCTTGC
4. AATTTTATCAAACATGTCCTTG
5. TTTATCTGTCATTTCACTGATG
6. TTCCACATTAAAACCAATGGTA
7. TACTGTGAAACAAATGTTCTTA
8. TTGTGTTGCACAAGTGGCTTGA

Response:
[-0.535, -0.61, 0.842, -0.486, -0.303, -0.547, 0.474, 0.462]

For each of the sequences below, note its sensor-assay potency score (higher = more potent).
1. TAATTCTATCTTGACCACCAAC
2. TTTCACGATCGTTGCTATCTAC
3. TTTATCAAACATGTCCTTGGTT
4. TTCTGTTACGAAGAGACTGAAG
5. TTCTATCTTGACCACCAACATC

Response:
[-1.26, 0.0471, 0.237, -1.25, -1.78]

Prompt: Quick one: sensor-assay potency score (higher = more potent) for TAGCATTTGGCAAATCCTGTTT ?
Response: -0.434

----------
# Study Target: ACCN2
# Test Details: pooled miR-30 sensor sort-seq; sequence = guide strand
# Study Conditions: shRNA
// class assignment uses sensor-assay potency score (higher = more potent) with these ranges: Low = under -1, Mid = from -1 up to -0.2, High = -0.2 and over

# count of solved cases: 8
Prompt: Hi, small favor: classify TTTTCCTCGTCGGCACAGCTTG by its sensor-assay potency score (higher = more potent) when you get a moment.
Response: Low

Prompt: How about TAGTACTGCACACGCTCCGTGC ?
Response: Mid

Prompt: How about TGGATCTGCACTTTGATGCCTG ?
Response: High

Prompt: How about TTCATCCTGACTATGGATCTGC ?
Response: High

Prompt: How about TAGCACTTTCCATAGCGTGTGA ?
Response: High

Prompt: How about TTTGACGTCGTCCAGGCTGAGG ?
Response: Low

Prompt: How about TTGAACGTGTAGCACTTTCCAT ?
Response: Mid

Prompt: How about TATAGCAATATAGAGTCTGTAT ?
Response: High

Others:
Prompt: Hi, small favor: classify TTTTCATCTGCCATCTGTGTGT by its sensor-assay potency score (higher = more potent) when you get a moment.
Response: High

Prompt: How about TCAGATTTGTTGAACTTCTTGG ?
Response: High

Prompt: How about TTTGTTGAACTTCTTGGCCAGG ?
Response: Mid

Prompt: How about TTTGCTGGGGATCTTGACCATG ?
Response: Low

Prompt: How about TTCAATGGTCTCATAGTTGAGG ?
Response: Mid

----------
# Study Target: FAM181A
# Test Details: pooled miR-30 sensor sort-seq; sequence = guide strand
# Study Conditions: shRNA
Recorded Metric: sensor-assay potency score (higher = more potent)
Give bare numbers.

Prompt: Quick one: sensor-assay potency score (higher = more potent) for TACTTCTGGGAGAAGCGCTTGA ?
Response: -0.152

For each of the sequences below, note its sensor-assay potency score (higher = more potent).
1. TTGATGTCGCTGGACGCCAGGT
2. ATCTTCACATCACTGTCGGATG
3. TCGGATGCCATCACCAGGGGGC
4. TTGCGATGGTCCACGGAGCGGC
5. AAATCCAGGAGCAGCCTCCTGG

Response:
1. -1.09
2. -1.37
3. -0.489
4. -0.977
5. -1.06

Prompt: Quick one: sensor-assay potency score (higher = more potent) for AACAAGAACAACAACTGAGATT ?
Response: -1.01

----------
# Study Target: MPDU1
# Test Details: pooled miR-30 sensor sort-seq; sequence = guide strand
# Study Conditions: shRNA
Hi there, I'd appreciate the recorded sensor-assay potency score (higher = more potent) for every entry that follows.
Numbers only.

For each of the sequences below, note its sensor-assay potency score (higher = more potent).
1. TTTCTAAGGATCTGGATCCATC
2. TTTCACAGTCTGTCCTCTGTAG

Response:
[-1.09, 0.208]

----------
# Study Target: NLRP3
# Test Details: pooled miR-30 sensor sort-seq; sequence = guide strand
# Study Conditions: shRNA
Hi there, I'd appreciate the recorded sensor-assay potency score (higher = more potent) for every entry that follows.
Numbers only.

Take a look at these entries with their results.
Prompt: Quick one: sensor-assay potency score (higher = more potent) for TTGGCTTTCACTTCAATCCATT ?
Response: -0.825

Prompt: How about TTCTCATAAAGGTCTCTCCTGT ?
Response: -0.131

Prompt: How about TAGATCCACATGGTCTGCCTTC ?
Response: -0.905

Prompt: How about AAGCTGTAGAACTTCTCGCAGT ?
Response: -0.94

Prompt: How about TGTGATGACAACAACACCCGAT ?
Response: 0.603

For each of the sequences below, note its sensor-assay potency score (higher = more potent).
1. TTCTCTGTCTGACCCCTCGGGA
2. TTTTGGAACAGGTTCATCCTCA
3. TTGAAGTCGATCATTAGCGTGG

Response:
-1.19
-0.144
0.548

Prompt: Quick one: sensor-assay potency score (higher = more potent) for TTACAAATAGAGATTCTCGAAA ?
Response: -0.224

----------
# Study Target: FAM164C
# Test Details: pooled miR-30 sensor sort-seq; sequence = guide strand
# Study Conditions: shRNA
Label t for high-side sensor-assay potency score (higher = more potent) (at or above -0.4) and f for low-side sensor-assay potency score (higher = more potent) (below it).

Prompt: // inclusive: sensor-assay potency score (higher = more potent) at least -0.4? input: TTGATGGTCTTACACTTGGGAA
Response: f

Prompt: How about TAGAGGTGGAAGACAGTTCTTG ?
Response: t

Prompt: How about TAGCTCTGCAGGCAGATCTGGG ?
Response: f

Prompt: How about ATCACTTTCTGGATCTTGCTGG ?
Response: t

Prompt: How about TTTGTTGCTCAAAAGCTGCTTC ?
Response: t

Prompt: How about TTATCCAGAATCAACTCTTTGT ?
Response: t

Prompt: How about TTTCTTTCTGCTTTGCATCAAA ?
Response: f

Prompt: How about TTTACTGCTGAAGAGAAGCAGA ?
Response: f

----------
Hi there, I'd appreciate the recorded sensor-assay potency score (higher = more potent) for every entry that follows.
# Study Target: PDIA5
# Test Details: pooled miR-30 sensor sort-seq; sequence = guide strand
# Study Conditions: shRNA
Numbers only.

Take a look at these entries with their results.
Prompt: Quick one: sensor-assay potency score (higher = more potent) for TTGCACATGCTGCACCAGGGGG ?
Response: -1.31

Prompt: How about TAGAACATGACCAAGGTGTGTT ?
Response: 0.669

Prompt: How about TCATACTGGAACAAGAACCGTC ?
Response: 0.647

Prompt: How about TCAACCTTTTTGTCCTTCGGGC ?
Response: -0.306

Prompt: How about TAATTCAACCTTTTTGTCCTTC ?
Response: 0.526

Prompt: How about TACTGGAACAAGAACCGTCCTT ?
Response: 0.0118

Prompt: How about TACTTTTCTGCGAACTTCCCAT ?
Response: -0.283

Prompt: How about TAGTCTTTCATGGTCTCCCTCC ?
Response: -0.586

Prompt: How about TTTGACACAGTCAACAGCGGCA ?
Response: -0.283

Shifting focus to the sequence that follows.
Prompt: Quick one: sensor-assay potency score (higher = more potent) for TTCAACGTAGGAAACTCTGAGA ?
Response: -0.249

----------
Hi there, I'd appreciate the recorded sensor-assay potency score (higher = more potent) for every entry that follows.
# Study Target: MRPS24
# Test Details: pooled miR-30 sensor sort-seq; sequence = guide strand
# Study Conditions: shRNA
Give bare numbers.

Take a look at these entries with their results.
Prompt: Quick one: sensor-assay potency score (higher = more potent) for TTGGAGGTGGAGTCGCACAGGA ?
Response: -0.602

Prompt: How about TACTTGTGTGGAGACAACTGCC ?
Response: -0.594

Prompt: How about TAAAACCAGCTGGTCAGCCAGG ?
Response: -1.47

Prompt: How about TAAAAGTAGGACAGCAAAGTTT ?
Response: -1.12

Others:
Prompt: Quick one: sensor-assay potency score (higher = more potent) for TGTGCAGCGACAGCCAGCCTTT ?
Response: -0.931
